Recorded Cmax, one value per entry.
assay: Cmax in Sprague-Dawley rat at 3.5 mg/kg, po measured for 24 hrs by LC-MS/MS analysis; assay type: ADME, organism-based; details: in vivo
API: value field is a number in ng/mL; no unit string.

Cl.Cn1cc(-c2ccnc(Nc3cccc(N)c3)n2)c2ccccc21
65.2

Now consider the entry below.
What Cmax value was documented for this molecule, Cc1ccc(Nc2nccc(-c3cn(C)c4ccccc34)n2)cc1N.Cl ?
193

---

assay: AUC (0 to t) in Sprague-Dawley rat at 3.5 mg/kg, iv measured for 24 hrs by LC-MS/MS analysis; type: ADME, organism-based; details: in vivo
Recorded AUC(0-t) at 24 h, one value per entry.
API: value field is a number in ng·h/mL; no unit string.

Cc1ccc(Nc2nccc(-c3cn(C)c4ccccc34)n2)cc1N.Cl
1630

Now consider the entry below.
What AUC(0-t) at 24 h value was documented for this molecule, Cl.Cn1cc(-c2ccnc(Nc3cccc(N)c3)n2)c2ccccc21 ?
633
